Parameter glycan array binding signal (z-score): see the listing below.
# assayTarget: Fuc(a1-2)[Gal(a1-3)]Gal(b1-4)GlcNAc(b1-6)GalNAc
# methodSummary: glycan array binding signal (z-score within array); higher = stronger binding
# studyConditions: glycan notation: IUPAC condensed, linker removed
Many of the other results were omitted from the sample, so the strongest signals are more common in it than they were.
Answer with the value's number alone.

Study these solved cases before continuing.
binder	glycan array binding signal (z-score)
his-Lectin-24A (Drosophila melanogaster) (protein) MFRLSVLVLNLLLVSHEFSAGTAKIEIQPLPALCNGYCFPTLKPVMEYVAIHQDKWNTCTEILANEARKDQIQLNIQLDALKADVSNIKASQLSKDEKLDRMEREQFAMHESLETINRYLTVKLDRTKLQLEAIKNTMDYMKAQMDGYFSAINGVQCLQPGFEKIGDRYFYIEEDVELNWLDAQAKCRRMGGHLASIKTKQEFDAIVEKLDDSKSYFLGVNENTKTGDFVSAASGKSCLYHEWGPGEPHHNNDQERCVSILRKLMHVGNCTYEKRFICQYGI	0.328
AT5G01260(PC)(40) (Arabidopsis thaliana), Q9LFB0 (protein) MIGIGRTLTSSSPSKIILEDLPPGIYRYGTEIFTSVPRKTFHHIKFLRLDSAQSSRILKPVPLRSSSIKDSQVNVEDEEIEASNKTVRVRFQLRKECVFGEHFFIVGDDPVFGGLWDPETALPLNWSDGNVWTVDLDLPVGRLVEFKLLLKAQTGEILWQPGPNRALETWETNKTIRICEDWDNADLQMMIEEDFVPYTNISSIGSEDEDEVLGSVQQNSSVVAVENAGYVSDESAQNSSFSIQSEKTMEPSNGALTAREVIKEAMFTEEESPVLVPGLIPLSDLDNEQVEVINEGKAETFPEVDKKQEPKAERNKKAKVKAISLFEKSEQEAVKSVEQRQYNAVEEEQQRLETEPLGTPDVLFENDIQWGRRTLYKLLSNFRLF	-0.256

Ask: Need glycan array binding signal (z-score), item Lb MiSSP8 (Laccaria bicolor) (protein) MYFHTLFACATLMLITTAHASPTVINSLDSRKADLNGDVEARHAADWRRDSDWRRDSDWRRDSDWRRDSD
Reply: -0.53
